Catalogue of sequences with associated phosphorylation enrichment
- ASSAY TARGET: Hck (UniProt P08631)
- Sequence (P08631 whole entry, looked up): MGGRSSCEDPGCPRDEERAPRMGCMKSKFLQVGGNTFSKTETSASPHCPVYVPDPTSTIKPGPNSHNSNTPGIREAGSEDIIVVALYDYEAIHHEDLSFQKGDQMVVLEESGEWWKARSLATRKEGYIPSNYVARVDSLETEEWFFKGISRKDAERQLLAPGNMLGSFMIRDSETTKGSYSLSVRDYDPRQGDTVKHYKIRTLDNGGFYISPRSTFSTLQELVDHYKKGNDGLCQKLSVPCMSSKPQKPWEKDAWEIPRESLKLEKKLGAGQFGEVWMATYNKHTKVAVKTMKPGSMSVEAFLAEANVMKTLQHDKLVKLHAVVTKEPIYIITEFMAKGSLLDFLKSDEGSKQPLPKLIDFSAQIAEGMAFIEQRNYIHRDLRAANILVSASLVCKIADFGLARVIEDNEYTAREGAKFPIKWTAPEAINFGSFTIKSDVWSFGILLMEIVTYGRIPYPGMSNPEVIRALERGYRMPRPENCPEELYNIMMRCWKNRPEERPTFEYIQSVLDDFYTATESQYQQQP
- ASSAY NAME: phosphorylation enrichment, bacterial display (enrichment ratio); higher = better substrate or ligand; peptides without Tyr show the background;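 also: 11-residue human phosphosite peptides and single-mutation variants displayed on the E. coli surface, counted by deep sequencing, each peptide's frequency after selection divided by its frequency in the unselected input library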;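 also: frequency after pTyr selection over input frequency; kinase dosed for 20-30% of maximal phosphorylation in three min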

{"columns": ["SEQ STRING", "phosphorylation enrichment"],
 "data": [
  ["SMVVPYEPPEV [TP53_Y220_V216M]", 0.407],
  ["RGKLFYQEVPA [METTL11B_Y76_A72G]", 0.853],
  ["REVPVYTDSEP [FAM120B_Y368]", 0.643],
  ["LSPPVYLTNEW [NRK_Y885_I880L]", 0.651],
  ["HSDYQYSQRSQ [PKP2_Y168]", 0.353],
  ["RHLQEYQDLLN [GFAP_Y349]", 0.468],
  ["TNEYEYDELIV [TGM1_Y136_D132N]", 0.769]
]}

These data points were gathered from the supplement of paper PMC10065799.
